This collection of values is drawn from patent US9115117B2.

Biological target: human orexin 2 receptor (Homo sapiens (Human), UniProt O43614)
Sequence (O43614 whole entry): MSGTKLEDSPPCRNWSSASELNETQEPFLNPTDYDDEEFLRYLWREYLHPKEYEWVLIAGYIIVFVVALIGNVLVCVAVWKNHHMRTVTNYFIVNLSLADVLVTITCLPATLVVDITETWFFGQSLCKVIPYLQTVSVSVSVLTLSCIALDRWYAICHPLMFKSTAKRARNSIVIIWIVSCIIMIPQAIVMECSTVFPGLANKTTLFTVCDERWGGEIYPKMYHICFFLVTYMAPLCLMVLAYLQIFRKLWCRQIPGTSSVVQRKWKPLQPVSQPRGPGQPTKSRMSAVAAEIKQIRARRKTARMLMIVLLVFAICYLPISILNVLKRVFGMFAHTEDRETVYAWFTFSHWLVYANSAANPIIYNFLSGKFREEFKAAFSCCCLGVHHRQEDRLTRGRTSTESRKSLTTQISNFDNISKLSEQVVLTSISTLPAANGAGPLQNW
Test: Human orexin 2 receptor radioligand binding ([3H]-EMPA)
Details: HEK293 stably expressing human orexin 2 receptor; [3H]-EMPA; apparent Ki; read-out: hOX2 Ki
pKi: −log10 of the molar value.
endpoint name: pKi

What the record says about C[C@H]1[C@H](Nc2cnc(C(F)(F)F)cn2)CCCN1C(=O)c1ccccc1-n1nccn1 [Example 85] : pKi is 6.68

What the record says about COc1ccc(-n2nccn2)c(C(=O)N2CCC[C@@H](Nc3ncc(C(F)(F)F)cn3)[C@@H]2C)c1 : pKi is 6.43

What the record says about C[C@H]1[C@H](Nc2nccc(C(F)(F)F)n2)CCCN1C(=O)c1c(F)cccc1-n1nccn1 (racemic) : pKi is 6.84

a = COc1ccc(C(=O)N2CCC[C@@H](Nc3ccc(C(F)(F)F)cn3)[C@@H]2C)c(-n2nccn2)c1
b = C[C@H]1[C@H](Nc2ncc(F)cn2)CCCN1C(=O)c1ccccc1-n1nccn1 (racemic)
c = Cc1cc(C)nc(N[C@@H]2CCCN(C(=O)c3c(F)cccc3-n3nccn3)[C@H]2C)n1 (racemic)
d = Cc1ccc(C(=O)N2CCC[C@@H](Nc3ncc(Cl)cn3)[C@@H]2C)c(-n2nccn2)c1
Exercise: # rank_down: sort by pKi, max first Put the labels in the order asked and list them.
Solution: c, b, d, a
(c: 6.59, b: 6.09, d: 5.68, a: 5.21)

---

Target: human orexin 2 receptor (Homo sapiens (Human), UniProt O43614)
Assay: Human orexin 2 receptor radioligand binding ([3H]-EMPA)
Details: HEK293 stably expressing human orexin 2 receptor; [3H]-EMPA; apparent Ki; read-out: hOX2 Ki
Structures can show the parent of a compound that is named as a salt.
endpoint name: Ki (nM)

What the record says about Cc1cc(C)nc(N[C@@H]2CCCN(C(=O)c3ccccc3-n3nccn3)[C@H]2C)n1 (racemic) : Ki is 40

What the record says about Cc1cnc(C(=O)N2CCC[C@@H](Nc3cnc(C(F)(F)F)cn3)[C@@H]2C)c(-c2ncco2)c1 : Ki is 7000

What the record says about Cc1cc(C)nc(N[C@@H]2CCCN(C(=O)c3ccc(F)cc3-n3nccn3)[C@H]2C)n1 (racemic) : Ki is 290

What the record says about Cc1ccc(-c2ncco2)c(C(=O)N2CCC[C@@H](Nc3ccc(C(F)(F)F)cn3)[C@@H]2C)n1 [Example 25, hydrochloride] : Ki is 190

a = Cc1cccc(C(=O)N2CCC[C@@H](Nc3ccc(C(F)(F)F)cn3)[C@@H]2C)c1-n1nccn1 (racemic)
b = Cc1cnc(C(=O)N2CCC[C@@H](Nc3ccc(C(F)(F)F)cn3)[C@@H]2C)c(-n2nccn2)c1
c = C[C@H]1[C@H](Nc2cnc(C(F)(F)F)cn2)CCCN1C(=O)c1ccccc1-n1nccn1 (racemic) [Example 38]
d = Cc1ccc(C(=O)N2CCC[C@@H](Nc3cnc(C(F)(F)F)cn3)[C@@H]2C)c(-n2nccn2)c1
Exercise: # rank_down: sort by Ki, max first Put the labels in the order asked and list them.
Solution: b, d, c, a
(b: 2040 nM, d: 1300 nM, c: 529 nM, a: 150 nM)

---

Molecular target: human orexin 2 receptor (Homo sapiens (Human))
Experiment: Human orexin 2 receptor radioligand binding ([3H]-EMPA)
Conditions: HEK293 stably expressing human orexin 2 receptor; [3H]-EMPA; apparent Ki; read-out: hOX2 Ki
endpoint name: Ki (nM)

Here's what some known entries look like.
Hey, human orexin 2 receptor (Homo sapiens (Human)) data for CCOc1ccccc1C(=O)N1CCC[C@@H](Nc2nc3cc(Cl)ccc3o2)[C@@H]1C (racemic) : Ki came out at 489

Hey, human orexin 2 receptor (Homo sapiens (Human)) data for C[C@H]1[C@H](Nc2ccc(Cl)cn2)CCCN1C(=O)c1ccccc1-n1nccn1 [Example 100] : Ki came out at 207

Hey, human orexin 2 receptor (Homo sapiens (Human)) data for C[C@H]1[C@H](Nc2ccc(C(F)(F)F)cn2)CCCN1C(=O)c1cc(Cl)ccc1-n1nccn1 (racemic) : Ki came out at 221

I = Cc1ccc(-c2ncccn2)c(C(=O)N2CCC[C@@H](Nc3cnc(C(F)(F)F)cn3)[C@@H]2C)n1
II = Cc1ccc(C(=O)N2CCC[C@@H](Nc3ccc(C(F)(F)F)cn3)[C@@H]2C)c(-n2nccn2)c1 (racemic) [Example 13]
III = CCOc1ccccc1C(=O)N1CCC[C@@H](Nc2nc3cc(Cl)ccc3o2)[C@H]1C (racemic)
IV = C[C@H]1[C@H](Nc2ccccn2)CCCN1C(=O)c1ccccc1-n1nccn1 (racemic)
Exercise: List by increasing Ki. Put the labels in the order asked and list them.
Solution: I, II, IV, III

---

Measured pKi on rat orexin 1 receptor (Rattus norvegicus, UniProt P56718) follows.
pKi: −log10 of the molar value. Counter-ions that a name gives are not always drawn.
endpoint name: pKi

Here's what some known entries look like.
What the record says about C[C@H]1[C@H](Nc2ccc(C(F)(F)F)nn2)CCCN1C(=O)c1ccccc1-n1nccn1 (racemic) [Example 33, hydrochloride] : pKi is 6.70

What the record says about Cc1ccc(-c2ncccn2)c(C(=O)N2CCC[C@@H](Nc3ncc(C(F)(F)F)cn3)[C@@H]2C)n1 [Example 78] : pKi is 7.52

P = Cc1cnc(C(=O)N2CCC[C@@H](Nc3ccc(Br)cn3)[C@@H]2C)c(-n2nccn2)c1 [Example 92]
Q = CCOc1ccccc1C(=O)N1CCC[C@@H](Nc2ccc(Br)cn2)[C@H]1C (racemic) [Example 59]
R = COc1c(F)cccc1C(=O)N1CCC[C@@H](Nc2ccc(C(F)(F)F)cn2)[C@H]1C (racemic) [Example 54]
S = C[C@H]1[C@H](Nc2cnc(C(F)(F)F)cn2)CCCN1C(=O)c1ccccc1-n1nccn1 [Example 85]
Exercise: # rank_down: sort by pKi, max first Put the labels in the order asked and list them.
Solution: S, P, Q, R
(S: 8.10, P: 7.72, Q: 5.74, R: 5.35)

---

pKi: −log10 of the molar value. Structures can show the parent of a compound that is named as a salt.
Measured pKi on human orexin 1 receptor (Homo sapiens, UniProt O43613) follows.
endpoint name: pKi

Here's what some known entries look like.
What the record says about Cc1ccc(C(=O)N2CCC[C@@H](Nc3cnc(C(F)(F)F)cn3)[C@@H]2C)c(-n2nccn2)n1 : pKi is 7.28

What the record says about Cc1ccc(C(=O)N2CCC[C@@H](Nc3nc4ccccc4o3)[C@@H]2C)c(-n2nccn2)n1 : pKi is 7.40

What the record says about Cc1cnc(C(=O)N2CCC[C@@H](Nc3cnc(C(F)(F)F)cn3)[C@@H]2C)c(-n2nccn2)c1 : pKi is 7.48

What the record says about Cc1ccc(-c2ncco2)c(C(=O)N2CCC[C@@H](Nc3ccc(C(F)(F)F)cn3)[C@@H]2C)n1 (racemic) [Example 22, hydrochloride] : pKi is 7.72

What the record says about Cc1ccc(C(=O)N2CCC[C@@H](Nc3ncc(C(F)(F)F)cn3)[C@@H]2C)c(-n2ccnn2)n1 : pKi is 6.78

P = Cc1cccc(C(=O)N2CCC[C@@H](Nc3ccc(C(F)(F)F)cn3)[C@@H]2C)c1-n1nccn1 (racemic)
Q = Cc1cnc(C(=O)N2CCC[C@@H](Nc3ccc(Br)cn3)[C@@H]2C)c(-n2nccn2)c1
Exercise: Sorting ascending by pKi, which comes first: P or Q ? Answer = label.
Solution: Q
(Q: 7.74, P: 8.10)

---

Molecular target: human orexin 1 receptor (Homo sapiens, UniProt O43613)
endpoint name: Ki (µM)

Here's what some known entries look like.
What the record says about Cc1ccc(-c2ncccn2)c(C(=O)N2CCC[C@@H](Nc3ncc(C(F)(F)F)cn3)[C@@H]2C)n1 [Example 78] : Ki is 0.057

What the record says about Cc1cnc(C(=O)N2CCC[C@@H](Nc3ncc(C(F)(F)F)cn3)[C@@H]2C)c(-n2nccn2)c1 [Example 94] : Ki is 0.025

a = Cc1ccc(C(=O)N2CCC[C@@H](Nc3cnc(C(F)(F)F)cn3)[C@@H]2C)c(-n2ccnn2)n1 [Example 96]
b = C[C@H]1[C@H](Nc2nccc(C(F)(F)F)n2)CCCN1C(=O)c1c(F)cccc1-n1nccn1 (racemic) [Example 10]
c = COc1ccc(C(=O)N2CCC[C@@H](Nc3ncc(C(F)(F)F)cn3)[C@@H]2C)c(-n2nccn2)c1 [Example 95]
d = Cc1cnc(C(=O)N2CCC[C@@H](Nc3nc4ccccc4o3)[C@@H]2C)c(-c2ncco2)c1 [Example 88]
e = Cc1ccc(-n2nccn2)c(C(=O)N2CCC[C@@H](Oc3ncc(C(F)(F)F)cn3)[C@@H]2C)n1 [Example 104]
Exercise: # rank_down: sort by Ki, max first Put the labels in the order asked and list them.
Solution: b, e, c, a, d

---

Measured Ki on UniProt P56718 follows.
endpoint name: Ki (nM)

What the record says about COc1ccc(C(=O)N2CCC[C@@H](Nc3ncc(C(F)(F)F)cn3)[C@@H]2C)c(-n2nccn2)c1 [Example 95] : Ki is 81

I = COc1ccc(-n2nccn2)c(C(=O)N2CCC[C@@H](Nc3ncc(C(F)(F)F)cn3)[C@@H]2C)c1 [Example 89]
II = Cc1ccc(C(=O)N2CCC[C@@H](Nc3ccc(Cl)cn3)[C@@H]2C)c(-n2nccn2)c1 [Example 99]
III = Cc1ccc(C(=O)N2CCC[C@@H](Nc3ccc(C(F)(F)F)cn3)[C@@H]2C)c(-n2nccn2)c1 [Example 14]
Exercise: List by increasing Ki. Put the labels in the order asked and list them.
Solution: III, I, II
(III: 9 nM, I: 14 nM, II: 23 nM)
